Taken from the supplement of paper PMC9170038.

Item-by-item account of apparent KD of MS2 coat protein
tested on: MS2 coat protein; test: apparent KD of MS2 coat protein; designed switch direction (-1 OFF switch, 1 ON switch): -1; higher = weaker reporter binding; conditions: input ligand: FMN 200 uM
Write the value in nM as a bare number.

The cases that follow already have their apparent KD of MS2 coat protein on record.
Task: Return apparent KD of MS2 coat protein measured with MS2 coat protein given this sequence: ACAUGUCAUCGAGGAUAUUGUACACAUGAGGAUCACCCAUGUAUUCGGUUGCUCUCGCGUGAGUUCGAGAAGGCGAUGUACAUU [Ex NG2 #82] (Eterna round: R96, puzzle: Exclusion NG 2)
Output: 105

Task: Form entry - test system: MS2 coat protein; read-out: apparent KD of MS2 coat protein; sequence: GUGUGUUGAUUAGGAUAUGCUCUAAGCAAUCGGGCAGAAGGAGUUAGACAUGAGGAUCACCCAUGUAAAUAUCGGAUCCCAACG [Eternabot solution 17] (Eterna round: R96, puzzle: Exclusion NG 1)
Output: 18.6

More entries:
Task: Please tell me: apparent KD of MS2 coat protein of UCUUUACAUGAGGAUCACCCAUGUGAGGAUAUGGUUUCGCUGGCCGUAGCCAGUGGAACCAGAAGGCGCGUGAU [Mat - Exclusion 1 - JL Mod - D25] (Eterna round: R97, puzzle: Exclusion 1) , system MS2 coat protein?
Output: 55.1

Task: Could you share what apparent KD of MS2 coat protein was measured for GGGCUGUCAGGAUAUCCCGGGCCCGGGUAAACCCGGGUUUGGGAGAAGGGACAUGAGGAUCACCCAUGUGGCCC [-39.8, -38.8 kcal, A 20%, 5cbis-0] (Eterna round: R97, puzzle: Exclusion 4) , tested on MS2 coat protein?
Output: 34.8

Task: For the record AAGGAUAGAGGAUAUACAUAGAUACAGAUUCAUGUAGAACUACAUGAGGAUCACCCAUGUAGAAGGCUAUCCUA [Mat - Same state - Mayanna Mod - D121] (Eterna round: R96, puzzle: Exclusion 2) , what value of apparent KD of MS2 coat protein is listed for MS2 coat protein?
Output: 316
